Population Normal (%) for assorted compounds
system: Fibroblast; assay: Multiplex assay against human fibroblast; assay type: toxicity, cell-based; details: 24 h, 1 µM, compound concentration 1 uM
parameter: Population Normal (%)

[[record]]
compound = "COc1ccc(CC(=O)NC(N/C(=N/C#N)Nc2cccc3ncccc23)C(C)(C)C)cc1OC (stereo not given)"
result = "100%"

[[record]]
compound = "C=CC(=O)N1CCC[C@@H](n2nc(C(=O)Nc3ccc(CC(=O)N(C)C)c(C)c3C)c3c(N)ncnc32)C1"
result = "100%"

[[record]]
compound = "CC(C)(C)c1cc(C(C)(C)C)c(NC(=O)c2c[nH]c3ccccc3c2=O)cc1O [IVACAFTOR]"
result = "100%"

[[record]]
compound = "CC(N)C1CCC(C(=O)Nc2ccncc2)CC1 (stereo not given)"
result = "100%"

[[record]]
compound = "CC(C)(c1ccc(O)cc1)c1ccc(O)cc1 [BISPHENOL A]"
result = "100%"


----------
test system: U2OS; experiment: Multiplex assay against U2OS; assay type: toxicity, cell-based; conditions: human, 12 h, 1 µM, compound concentration 1 uM
Population Hoechst High Intensity Objects (%) for assorted compounds
parameter: Population Hoechst High Intensity Objects (%)

[[record]]
compound = "CN1[C@@H](CC(=O)c2ccccc2)CCC[C@H]1C[C@H](O)c1ccccc1.Cl [LOBELINE HYDROCHLORIDE]"
result_number = 0

[[record]]
compound = "O=C(Nc1c[nH]nc1-c1nc2cc(CN3CCOCC3)ccc2[nH]1)NC1CC1"
result_number = 0

[[record]]
compound = "CC(C)(C)c1cc(C(C)(C)C)c(NC(=O)c2c[nH]c3ccccc3c2=O)cc1O"
result_number = 0

[[record]]
compound = "COC(c1ccccc1)(c1ccccc1)[C@H](Oc1nc(C)cc(C)n1)C(=O)O"
result_number = 2

[[record]]
compound = "Cc1c(-c2cc(-c3ccccc3Cl)no2)cnn1C1CCNCC1.Cl"
result_number = 0

[[record]]
compound = "COC(=O)C1=C(C)NC(C)=C(C(=O)OC(C)C)C1c1cccc2nonc12 (stereo not given)"
result_number = 0

[[record]]
compound = "Cc1c(C(=O)NCCCN(C)C)sc2ncnc(Nc3ccc(F)cc3OC(C)CF)c12 (stereo not given)"
result_number = 0

[[record]]
compound = "O=c1nc2[nH]c3ccccc3nc-2c(=O)[nH]1"
result_number = 2

[[record]]
compound = "Cc1ccccc1C(=O)Nc1ccc(C(=O)N2CCCC(N(C)C)c3ccccc32)cc1.Cl (stereo not given)"
result_number = 1

[[record]]
compound = "O=C(O)C(F)(F)F.O=C1NC(=O)/C(=C/c2c[nH]c(=O)c(-c3ccc(N4CCNCC4)nc3)c2)S1"
result_number = 0

[[record]]
compound = "CCC(=N\\O)/C(C)=C/c1ccc(F)cc1"
result_number = 0

[[record]]
compound = "Cc1ccc(-c2c(C(=O)CF)n(CCCO)c3ncnc(N)c23)cc1"
result_number = 0

[[record]]
compound = "COc1cc(OC2CCN(C(C)=O)CC2)ccc1C(=O)N1CCC(N2C(=O)OCc3ccccc32)CC1"
result_number = 0

[[record]]
compound = "CC(N)C1CCC(C(=O)Nc2ccncc2)CC1 (stereo not given)"
result_number = 0

[[record]]
compound = "CCCCCN1C(=O)C2(COc3cc4c(cc32)OCO4)c2ccccc21 (stereo not given)"
result_number = 0

[[record]]
compound = "CC(C)[C@H](C(=O)Nc1ccc(C(=O)NO)cc1)c1ccccc1"
result_number = 0

[[record]]
compound = "CCOC(=O)c1c(/C(C#N)=C\\N)c2ccc(Cl)c(Cl)c2n1C"
result_number = 0

[[record]]
compound = "NC1=NC(=O)/C(=C2\\CCNC(=O)c3[nH]c4ccccc4c32)N1"
result_number = 0

[[record]]
compound = "CC(C)(c1ccc(O)cc1)c1ccc(O)cc1"
result_number = 0

[[record]]
compound = "Oc1c(CN2CCN(c3ccccn3)CC2)cc(Cl)c2cccnc12"
result_number = 1


----------
tested on: U2OS; assay: Multiplex assay against U2OS; assay type: toxicity, cell-based; conditions: human, 12 h, 1 µM, compound concentration 1 uM
parameter: Population Membrane Permeable-Phenotype (%)

[[record]]
mol = "C[C@H](NC(=O)c1c(C(F)F)nn(C)c1Oc1cccc(C(F)(F)F)c1)c1ccc(C(=O)O)cc1"
result = "4%"

[[record]]
mol = "Cc1cnc(-c2cc(N3CCN(C(=O)CCS(C)(=O)=O)CC3)ncc2Cl)c(C)c1"
result = "10%"

[[record]]
mol = "O=c1nc2[nH]c3ccccc3nc-2c(=O)[nH]1"
result = "5%"

[[record]]
mol = "CC(C)C[C@H](CO)Nc1nc(S[C@@H](C)c2ccccc2)nc2nc(N)sc12"
result = "5%"


----------
Population Pyknosed Nuclei (%) for assorted compounds
tested on: U2OS; assay: Multiplex assay against U2OS; assay type: toxicity, cell-based; conditions: human, 12 h, 10 µM, compound concentration 10 uM
parameter: Population Pyknosed Nuclei (%)

[[record]]
mol = "C[C@H](NC(=O)c1c(C(F)F)nn(C)c1Oc1cccc(C(F)(F)F)c1)c1ccc(C(=O)O)cc1"
parameter = "Population Pyknosed Nuclei (%)"
unit_of_measurement = "%"
result_number = 8

[[record]]
mol = "Cc1cc(=O)n(C)c2cc(N3C(=O)CC[C@H](NS(=O)(=O)CC(C)C)[C@H]3c3ccc(Cl)cc3)ccc12"
parameter = "Population Pyknosed Nuclei (%)"
unit_of_measurement = "%"
result_number = 23

[[record]]
mol = "COC(c1ccccc1)(c1ccccc1)[C@H](Oc1nc(C)cc(C)n1)C(=O)O"
parameter = "Population Pyknosed Nuclei (%)"
unit_of_measurement = "%"
result_number = 7

[[record]]
mol = "Cn1cc(C(=O)OCC2CCN(CCNS(C)(=O)=O)CC2)c2ccccc21"
parameter = "Population Pyknosed Nuclei (%)"
unit_of_measurement = "%"
result_number = 5

[[record]]
mol = "O=c1nc2[nH]c3ccccc3nc-2c(=O)[nH]1"
parameter = "Population Pyknosed Nuclei (%)"
unit_of_measurement = "%"
result_number = 7


----------
tested on: U2OS; experiment: Multiplex assay against U2OS; assay type: toxicity, cell-based; settings: human, 12 h, 10 µM, compound concentration 10 uM
Population Normal (%) for assorted molecules
parameter: Population Normal (%)

[[record]]
molecule = "CCC(=N\\O)/C(C)=C/c1ccc(F)cc1 [A-079]"
measured_on = "U2OS"
unit_of_measurement = "%"
result_number = 100

[[record]]
molecule = "CCc1cc2cc(NS(=O)(=O)c3ccc(C#N)cc3)ccc2n(CC)c1=O"
measured_on = "U2OS"
unit_of_measurement = "%"
result_number = 97

[[record]]
molecule = "COc1ccc(CC(=O)NC(N/C(=N/C#N)Nc2cccc3ncccc23)C(C)(C)C)cc1OC (stereo unspecified)"
measured_on = "U2OS"
unit_of_measurement = "%"
result_number = 100

[[record]]
molecule = "CN1CC[C@@]23CCCC[C@@H]2[C@@H]1Cc1ccc(O)cc13.O=C(O)C(O)C(O)C(=O)O"
measured_on = "U2OS"
unit_of_measurement = "%"
result_number = 100

[[record]]
molecule = "CCn1c(-c2nonc2N)nc2c(C#CC(C)(C)O)ncc(OCC3CCCNC3)c21 (stereo unspecified)"
measured_on = "U2OS"
unit_of_measurement = "%"
result_number = 100

[[record]]
molecule = "Cl.N=C(N)NC(=O)Cc1c(Cl)cccc1Cl [GUANFACINE HYDROCHLORIDE]"
measured_on = "U2OS"
unit_of_measurement = "%"
result_number = 98

[[record]]
molecule = "O=C(O)C(F)(F)F.O=C1NC(=O)/C(=C/c2c[nH]c(=O)c(-c3ccc(N4CCNCC4)nc3)c2)S1"
measured_on = "U2OS"
unit_of_measurement = "%"
result_number = 100

[[record]]
molecule = "CC(C)[C@H](C(=O)Nc1ccc(C(=O)NO)cc1)c1ccccc1 [AR-42]"
measured_on = "U2OS"
unit_of_measurement = "%"
result_number = 100

[[record]]
molecule = "CC(N)C1CCC(C(=O)Nc2ccncc2)CC1 (stereo unspecified)"
measured_on = "U2OS"
unit_of_measurement = "%"
result_number = 100

[[record]]
molecule = "Cc1c(C(=O)NCCCN(C)C)sc2ncnc(Nc3ccc(F)cc3OC(C)CF)c12 (stereo unspecified)"
measured_on = "U2OS"
unit_of_measurement = "%"
result_number = 100

[[record]]
molecule = "Cc1cc(NC(=O)NCCN2CCC(O)(Cc3ccccc3)CC2)c2ccccc2n1 [PALOSURAN]"
measured_on = "U2OS"
unit_of_measurement = "%"
result_number = 96


----------
tested on: HEK-293T; assay: Multiplex assay against HEK293T; type: toxicity, cell-based; conditions: human, 12 h, 1 µM, compound concentration 1 uM
parameter: Population Hoechst High Intensity Objects (%)

[[record]]
molecule = "O=C(Nc1c[nH]nc1-c1nc2cc(CN3CCOCC3)ccc2[nH]1)NC1CC1"
measured_on = "HEK-293T"
unit_of_measurement = "%"
result_number = 0

[[record]]
molecule = "COc1cc(OC2CCN(C(C)=O)CC2)ccc1C(=O)N1CCC(N2C(=O)OCc3ccccc32)CC1"
measured_on = "HEK-293T"
unit_of_measurement = "%"
result_number = 7

[[record]]
molecule = "COc1cc2nc(N3CCN(C(=O)c4ccco4)CC3)nc(N)c2cc1OC.Cl [PRAZOSIN HYDROCHLORIDE]"
measured_on = "HEK-293T"
unit_of_measurement = "%"
result_number = 6

[[record]]
molecule = "CCCCCN1C(=O)C2(COc3cc4c(cc32)OCO4)c2ccccc21 (stereo not drawn)"
measured_on = "HEK-293T"
unit_of_measurement = "%"
result_number = 0

[[record]]
molecule = "C=CCN1C[C@H](C(=O)N(CCCN(C)C)C(=O)NCC)C[C@@H]2c3cccc4[nH]cc(c34)C[C@H]21"
measured_on = "HEK-293T"
unit_of_measurement = "%"
result_number = 8

[[record]]
molecule = "Cc1ccc(OCC(O)C(C)NC(C)C)c2c1CCC2.Cl (stereo not drawn)"
measured_on = "HEK-293T"
unit_of_measurement = "%"
result_number = 5

[[record]]
molecule = "Cc1cc(C(C#N)c2ccc(Cl)cc2)c(Cl)cc1NC(=O)c1cc(I)cc(I)c1O (stereo not drawn)"
measured_on = "HEK-293T"
unit_of_measurement = "%"
result_number = 0

[[record]]
molecule = "COc1cc(N2CCN(C)CC2)ccc1Nc1nccc(-c2cn(C)c3cnccc23)n1"
measured_on = "HEK-293T"
unit_of_measurement = "%"
result_number = 0


Taken from ChEMBL document CHEMBL5724801.
